# stoichiometry N per record follows
# experimental_system: recombinant wild-type cardiac troponin C (chicken) (UniProt P09860)
# experiment_summary: native gel or EMSA
quantity: stoichiometry N

>  <substance>
cTnI(210C), cardiac troponin I single-cysteine mutant C81I/C98S/E210C labeled with AEDANS (from UniProt P48787 1-211) (natural protein)

>  <quantity>
stoichiometry N

>  <recorded_measurement>
1

$$$$
>  <substance>
cTnI(160C), cardiac troponin I single-cysteine mutant C81I/C98S/L160C labeled with AEDANS (from UniProt P48787 1-211) (natural protein)

>  <quantity>
stoichiometry N

>  <recorded_measurement>
1

$$$$
>  <substance>
cTnI(131C), cardiac troponin I single-cysteine mutant C81I/C98S/Q131C labeled with AEDANS (from UniProt P48787 1-211) (natural protein)

>  <quantity>
stoichiometry N

>  <recorded_measurement>
1

$$$$
